Where do these numbers come from? They come from ChEMBL document CHEMBL5331063.

# system-name: TCF4-CTNNB1 complex (Homo sapiens, UniProt P35222+Q9NQB0)
# experimental-details: Inhibition of beta-Catenin/TCF4 (unknown origin) protein-protein interaction
# Assay type: protein-complex assay
pIC50: −log10 of the molar value.
value-kind: pIC50

C[C@H]1[C@H]2N(C(=O)CN(C)N2C(=O)NCc2ccccc2)[C@@H](Cc2ccc(OP(=O)(O)O)cc2)C(=O)N1Cc1cccc2cccnc12 = 6.82

----------
# system-name: Catenin beta-1/Cadherin-1 (Homo sapiens)
# Sequence (P35222 whole entry, the tested form may be a part): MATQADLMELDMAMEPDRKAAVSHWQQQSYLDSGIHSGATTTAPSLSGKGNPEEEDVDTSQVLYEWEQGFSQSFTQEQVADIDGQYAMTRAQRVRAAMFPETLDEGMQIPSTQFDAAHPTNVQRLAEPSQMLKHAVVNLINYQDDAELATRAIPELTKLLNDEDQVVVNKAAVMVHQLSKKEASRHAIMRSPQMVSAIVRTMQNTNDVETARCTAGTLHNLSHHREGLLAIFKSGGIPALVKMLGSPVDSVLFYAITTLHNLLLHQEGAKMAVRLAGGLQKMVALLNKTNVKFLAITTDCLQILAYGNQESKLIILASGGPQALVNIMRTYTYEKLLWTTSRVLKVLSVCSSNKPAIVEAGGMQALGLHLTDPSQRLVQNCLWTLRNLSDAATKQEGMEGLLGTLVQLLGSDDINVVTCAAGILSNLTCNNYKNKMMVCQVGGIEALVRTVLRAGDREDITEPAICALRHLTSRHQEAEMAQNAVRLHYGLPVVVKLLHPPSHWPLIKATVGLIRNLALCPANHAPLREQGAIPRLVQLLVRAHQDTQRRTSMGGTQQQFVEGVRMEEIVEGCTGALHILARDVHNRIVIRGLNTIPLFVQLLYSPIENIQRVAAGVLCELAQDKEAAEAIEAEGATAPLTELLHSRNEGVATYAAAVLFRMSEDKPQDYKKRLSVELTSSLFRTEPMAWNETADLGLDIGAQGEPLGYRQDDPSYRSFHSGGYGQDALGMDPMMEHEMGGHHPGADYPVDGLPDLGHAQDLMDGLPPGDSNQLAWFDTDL
# Sequence (P12830 whole entry, further chain, the tested form may be a part): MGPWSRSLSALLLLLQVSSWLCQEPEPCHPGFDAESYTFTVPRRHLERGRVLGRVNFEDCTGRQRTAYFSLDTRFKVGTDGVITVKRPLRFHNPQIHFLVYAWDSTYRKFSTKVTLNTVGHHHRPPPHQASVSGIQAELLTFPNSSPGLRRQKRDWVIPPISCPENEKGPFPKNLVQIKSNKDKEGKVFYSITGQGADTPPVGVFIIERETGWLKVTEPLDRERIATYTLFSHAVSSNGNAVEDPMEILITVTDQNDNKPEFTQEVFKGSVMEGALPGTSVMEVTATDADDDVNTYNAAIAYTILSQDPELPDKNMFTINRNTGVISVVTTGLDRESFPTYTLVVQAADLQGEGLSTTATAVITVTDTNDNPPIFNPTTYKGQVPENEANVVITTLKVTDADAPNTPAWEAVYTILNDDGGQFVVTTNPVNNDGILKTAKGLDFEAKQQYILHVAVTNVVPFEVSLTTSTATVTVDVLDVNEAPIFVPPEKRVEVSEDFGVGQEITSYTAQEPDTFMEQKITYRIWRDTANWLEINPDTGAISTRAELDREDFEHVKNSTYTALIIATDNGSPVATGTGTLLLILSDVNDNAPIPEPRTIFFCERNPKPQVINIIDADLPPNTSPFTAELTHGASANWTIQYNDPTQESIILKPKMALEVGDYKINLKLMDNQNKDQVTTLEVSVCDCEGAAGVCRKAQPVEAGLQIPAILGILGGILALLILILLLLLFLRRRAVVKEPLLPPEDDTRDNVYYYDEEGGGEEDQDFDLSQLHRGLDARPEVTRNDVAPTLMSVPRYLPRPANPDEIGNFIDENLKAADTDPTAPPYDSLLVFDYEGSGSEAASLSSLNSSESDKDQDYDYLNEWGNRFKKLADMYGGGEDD
# experimental-details: Inhibition of His6-tagged human beta-Catenin (138 to 686 residues)/C-terminal fluorescein-labeled human E-cadherin (819 to 873 residues) protein-protein interaction assessed as inhibition constant by AlphaScreen competitive assay
value-kind: Ki

O=C(Nc1ccc(O[C@H]2CCNC2)c(-c2ccc(F)cc2)c1)c1ccc(O[C@H]2CCNC2)c(-c2ccc(F)c(F)c2)c1 = 260 µM

----------
# system-name: TCF4-CTNNB1 complex (Homo sapiens, UniProt P15884+P35222)
# Sequence (P35222 whole entry): as the sequence (P35222 whole entry, the tested form may be a part) above
# Sequence (P15884 whole entry): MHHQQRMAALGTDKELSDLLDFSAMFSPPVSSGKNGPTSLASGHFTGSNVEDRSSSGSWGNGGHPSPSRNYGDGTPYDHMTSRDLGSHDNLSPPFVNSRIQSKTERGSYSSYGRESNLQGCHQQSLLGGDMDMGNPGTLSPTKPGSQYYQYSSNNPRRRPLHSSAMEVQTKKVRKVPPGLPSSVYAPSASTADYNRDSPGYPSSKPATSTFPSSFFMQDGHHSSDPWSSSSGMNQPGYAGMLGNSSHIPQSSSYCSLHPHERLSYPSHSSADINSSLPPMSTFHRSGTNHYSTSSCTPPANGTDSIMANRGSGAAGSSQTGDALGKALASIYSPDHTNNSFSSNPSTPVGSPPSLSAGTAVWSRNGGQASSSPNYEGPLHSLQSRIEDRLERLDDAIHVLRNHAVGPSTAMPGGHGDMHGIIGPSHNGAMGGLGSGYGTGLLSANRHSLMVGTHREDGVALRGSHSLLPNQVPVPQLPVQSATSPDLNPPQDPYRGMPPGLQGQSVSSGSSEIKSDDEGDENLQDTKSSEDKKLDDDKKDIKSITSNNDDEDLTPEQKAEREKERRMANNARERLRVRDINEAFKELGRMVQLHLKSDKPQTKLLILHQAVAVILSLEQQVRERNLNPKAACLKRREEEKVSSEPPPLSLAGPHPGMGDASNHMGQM
# experimental-details: Inhibition of wild type beta-Catenin/TCF4 protein-protein interaction in human Hep3B cells incubated for 24 hrs by TOPFLASH reporter assay
# Format: cell-based
pIC50: −log10 of the molar value.
value-kind: pIC50

O=C(Nc1cnn(Cc2ccc(F)cc2)c1)C1CC1c1ccccc1 (stereo unspecified) = 4.60
